test: chemical genetic growth profiling, strain panel (AID 1159580);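 further: tested at 20 µM; growth read once vehicle control cultures reached saturation at 30 °C; lower values mean less growth of the strain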; details: S. cerevisiae deletion strains, growth OD, locus YER002W, strain NOP16
About 2,000 (36%) of roughly 5,500 compounds were called active. About 18% were inconclusive and are not listed. No stated cut-off is given here; in the data, active means normalized growth mostly below about 0.91 (no sharp cut-off); inconclusive means no clear call, values can overlap the other calls; inactive means mostly above about 0.92. This is one part of the list.
// one of active, inactive, no free text

Past entries and their recorded results:
1) Nc1cc(=O)[nH]c(N)n1 : inactive
2) O=P(O)(O)C(Cl)(Cl)P(=O)(O)O : inactive

Could you kindly confirm the outcome this assay logged for O=C(O)CCCc1ccc(N(CCCl)CCCl)cc1 ? inactive

Could you kindly confirm the outcome this assay logged for CN1C2CCC1CC(OC(c1ccccc1)c1ccccc1)C2 (configuration not stated) ? inactive

Could you kindly confirm the outcome this assay logged for COc1ccc(C2CNC(=O)C2)cc1OC1CCCC1 (configuration not stated) ? inactive

Could you kindly confirm the outcome this assay logged for O=[N+]([O-])c1ccc(O[C@@H]2O[C@H](CO)[C@@H](O)[C@H](O)[C@H]2F)c([N+](=O)[O-])c1 ? inactive

Could you kindly confirm the outcome this assay logged for O=c1c(-c2ccc(O)cc2)coc2cc(O)ccc12 ? inactive

Could you kindly confirm the outcome this assay logged for O=C1CCC(N2C(=O)c3ccccc3C2=O)C(=O)N1 (configuration not stated) ? inactive

Could you kindly confirm the outcome this assay logged for CCCCCCCCCCCCCCCCCC(=O)NCC(COP(=O)([O-])OCC[N+](C)(C)C)OCC (configuration not stated) ? active

Could you kindly confirm the outcome this assay logged for Oc1cc(O)c2c(c1)OC(c1ccc(O)c(O)c1)C(O)C2 (configuration not stated) ? inactive

Could you kindly confirm the outcome this assay logged for C[C@H](Cc1ccccc1)Nc1ncnc2c1ncn2[C@@H]1O[C@H](CO)[C@H](O)C1O (some centres not stated) ? inactive

Could you kindly confirm the outcome this assay logged for OCc1cc(C(O)CNCCCCCCOCCCCc2ccccc2)ccc1O (configuration not stated) ? inactive

Could you kindly confirm the outcome this assay logged for CCCCNC(=O)NS(=O)(=O)c1ccc(C)cc1 ? inactive

Could you kindly confirm the outcome this assay logged for CN(C)CCN(Cc1cccs1)c1ccccn1 ? inactive

Could you kindly confirm the outcome this assay logged for O=C1C2C=CC=CC2=NC(=S)N1CCN1CCC(=C(c2ccc(F)cc2)c2ccc(F)cc2)CC1 (configuration not stated) ? inactive

Could you kindly confirm the outcome this assay logged for CN1C2CCC1CC(OC(=O)c1c[nH]c3ccccc13)C2 (configuration not stated) ? inactive

Could you kindly confirm the outcome this assay logged for CN1C2CCC1CC(OC(=O)c1cc(Cl)cc(Cl)c1)C2 (configuration not stated) ? inactive

* * *

assay: chemical genetic growth profiling, strain panel (AID 1159580);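 further: tested at 20 µM; growth read once vehicle control cultures reached saturation at 30 °C; lower values mean less growth of the strain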; conditions: S. cerevisiae deletion strains, growth OD, locus YDR137W, strain rgp1
Hit rate of the full screen: of about 5,500 compounds, about 2,000 (36%) were called active. Inconclusive results (about 18%) are left out. Cut-off read from the data, not from the text of the source: active = normalized growth mostly below about 0.91 (no sharp cut-off); inconclusive = no clear call, values can overlap the other calls; inactive = mostly above about 0.92. The list shows a part of the results.
// one of active, inactive, no free text

Past entries and their recorded results:
1) CC1(O)CC2C(CC1O)C2(C)C (stereo unspecified) : inactive
2) CC1CCc2cc(F)cc3c(=O)c(C(=O)O)cn1c23 (stereo unspecified) : inactive
3) CO/N=C1/CN(c2nc3c(cc2F)c(=O)c(C(=O)O)cn3C2CC2)CC1CN (stereo unspecified) : inactive
4) CCn1cc(C(=O)O)c(=O)c2cc(F)c(N3CCNC(C)C3)c(F)c21 (stereo unspecified) : inactive

Could you kindly confirm the outcome this assay logged for CN1C2CCC1CC(OC(c1ccccc1)c1ccccc1)C2 (stereo unspecified) ? inactive

Could you kindly confirm the outcome this assay logged for CC[C@@H](C(=O)C(C)[C@@H](O)[C@H](C)CCc1ccc(C)c(O)c1C(=O)O)C1OC(CC)(C2CC[C@](O)(CC)[C@H](C)O2)C[C@@H]1C (stereo partly specified) ? active

Could you kindly confirm the outcome this assay logged for CN1C2C[C@H](OC(=O)[C@H](CO)c3ccccc3)C[C@H]1[C@@H](O)C2 ? inactive

Could you kindly confirm the outcome this assay logged for OCC(O)CN1CCN(c2ccccc2)CC1 (stereo unspecified) ? inactive

Could you kindly confirm the outcome this assay logged for N=c1ccn2c(n1)OC1C(O)C(CO)OC12 (stereo unspecified) ? inactive

Could you kindly confirm the outcome this assay logged for CC1COc2c(N3CCN(C)CC3)c(F)cc3c(=O)c(C(=O)O)cn1c23 (stereo unspecified) ? inactive

Could you kindly confirm the outcome this assay logged for CCn1cc(C(=O)O)c(=O)c2cc(F)c(N3CCNCC3)nc21 ? inactive
